Target or test system: rat intestine derived lipase
Assay info: Lipase inhibitory action test (Lipase kit S)
Setup conditions: 30° C., 10 minutes reaction
Method: As lipase, one obtained by suspending 100 mg of rat derived intestine acetone powder (manufactured by Sigma-Aldrich Japan) in 1 mL of 100 mM citric acid buffer (pH 6.0), stirring the same at 4° C. for 1 hour, centrifuging the same (at 15000 rpm for 45 minutes at 4° C.) to obtain a supernatant, and then diluting the supernatant by 1500 times was used as a lipase solution. […]
Quantity: IC50

molecule="Oc1ccc(/C=C/c2cc(O)cc3c2C(c2ccc(O)cc2)Cc2cc(O)cc(O)c2-3)cc1 (single isomer, unassigned) [UHA 4002]" observed_value="311 µM"

Request: Name the recorded IC50 for Oc1ccc(/C=C/c2cc(O)cc(O)c2)cc1 [Resveratrol, trans-resveratrol, reference compound] .
Response: > 1000 µM
